system: PFKL (Homo sapiens, UniProt P17858)
Construct: made in house; host or cells: Sf9 insect cells (baculovirus, Bac-to-Bac)
Sequence (P17858 1-780): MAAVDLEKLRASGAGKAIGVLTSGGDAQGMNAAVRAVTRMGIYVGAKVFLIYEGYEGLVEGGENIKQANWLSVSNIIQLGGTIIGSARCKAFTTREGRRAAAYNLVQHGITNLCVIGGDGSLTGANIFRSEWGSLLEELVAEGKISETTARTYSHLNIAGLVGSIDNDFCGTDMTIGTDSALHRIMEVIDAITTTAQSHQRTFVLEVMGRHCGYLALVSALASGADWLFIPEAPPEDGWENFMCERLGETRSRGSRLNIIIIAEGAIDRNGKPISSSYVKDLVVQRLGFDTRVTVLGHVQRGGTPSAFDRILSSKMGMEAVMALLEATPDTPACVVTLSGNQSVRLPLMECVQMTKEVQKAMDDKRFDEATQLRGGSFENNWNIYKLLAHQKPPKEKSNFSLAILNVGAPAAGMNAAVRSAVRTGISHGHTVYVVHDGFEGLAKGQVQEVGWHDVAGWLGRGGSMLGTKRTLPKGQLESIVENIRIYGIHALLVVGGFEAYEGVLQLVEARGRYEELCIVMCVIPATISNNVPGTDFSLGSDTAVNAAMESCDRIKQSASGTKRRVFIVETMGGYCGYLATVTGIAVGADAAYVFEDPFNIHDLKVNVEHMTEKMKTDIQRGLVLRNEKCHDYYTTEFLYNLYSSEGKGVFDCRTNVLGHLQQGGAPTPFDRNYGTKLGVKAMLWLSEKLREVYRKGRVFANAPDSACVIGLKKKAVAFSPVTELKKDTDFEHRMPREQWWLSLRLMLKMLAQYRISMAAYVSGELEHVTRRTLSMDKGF
protocol: Recombinant PFKL activity assay (relief of ATP inhibition)
Type: biochemical
conditions.used: with 200 μM FBP; pH 7.5, 4.0 mM F6P, 3.1 mM ATP; read-out: EC50, NA-11
endpoint.label: EC50 (nM)

compound | system | endpoint.label | endpoint.unit | recorded.measurement
CC(=O)Nc1ccc2c(c1)OCc1cc(-c3ccccc3C#CCCCO)nn1C2 [NA-11] | PFKL (Homo sapiens, UniProt P17858) | EC50 | nM | 12

====

Quick reference for pEC50 among some compounds
system: PFKL(K315R) (PFKL−pocket) (Homo sapiens, UniProt P17858, K315R)
protocol: Recombinant PFKL−pocket activity assay
conditions.used: pH 7.5, 3.1 mM ATP, 4 mM F6P; mean ± SEM; read-out: EC50, activation of PFKL−pocket
pEC50: −log10 of the molar value.
endpoint.label: pEC50

entry.smiles | system | recorded.measurement
CC(=O)Nc1ccc2c(c1)OCc1cc(-c3ccccc3)nn1C2 | PFKL(K315R) (PFKL−pocket) (Homo sapiens, UniProt P17858, K315R) | 6.21
CC(=O)Nc1ccc2c(c1)OCc1cc(-c3ccccc3C#CCCCO)nn1C2 | PFKL(K315R) (PFKL−pocket) (Homo sapiens, UniProt P17858, K315R) | 6.78

====

system: PFKL (Homo sapiens, UniProt P17858)
Construct: made in house; host or cells: Sf9 insect cells (baculovirus, Bac-to-Bac)
protocol: Recombinant PFKL activity assay (relief of ATP inhibition)
Assay type: biochemical
conditions.used: pH 7.5, 3.1 mM ATP, 4 mM F6P; mean ± SEM; read-out: EC50, activation of PFKL wild type
pEC50: −log10 of the molar value.
endpoint.label: pEC50

compound | system | endpoint.label | recorded.measurement
CC(=O)Nc1ccc2c(c1)OCc1cc(-c3ccccc3)nn1C2 | PFKL (Homo sapiens, UniProt P17858) | pEC50 | 7.72
COc1ccccc1-c1cc2n(n1)Cc1ccc(NC(C)=O)cc1OC2 [LDC7559, reference compound] | PFKL (Homo sapiens, UniProt P17858) | pEC50 | 7.18
CC(=O)Nc1ccc2c(c1)OCc1cc(-c3ccccc3C#CCCCO)nn1C2 | PFKL (Homo sapiens, UniProt P17858) | pEC50 | 7.85
